Target: PfIspE (Plasmodium falciparum)
Assay: PfIspE enzymatic assay (coupled to PK/LDH, NADH oxidation at 340 nm)
Format: biochemical
Conditions: 10 mM stock in ACN at RT, 5 days of incubation
Protocol: Firstly, we performed a temperature‐dependent decomposition study of compound 1 at 10 mM concentration in DMSO at room temperature (RT), +4 °C and −20 °C (SI, Section 2.3). […] Besides visual inspection of the colour changes of the test sample (see Table 2), the decomposition was monitored by HRMS and NMR spectroscopy. […] For the final purified compounds, replicates were measured and standard deviation was calculated at least from two replicates. […]
pIC50: −log10 of the molar value.
ASSAY_READOUT: pIC50

Qu. Which pIC50 value belongs to CCn1c(C)cc(-c2csc(Nc3ccccc3C(F)(F)F)n2)c1C ?
Ans. < 3.30

----------
Molecular target: EcIspE (Escherichia coli)
Construct: made in house
Test: EcIspE enzymatic assay (coupled to PK/LDH)
Type: biochemical
Conditions: 10 mM DMSO stock stored at RT, measured after 3 months
ASSAY_READOUT: IC50 (µM)
Use µM as the unit, but write only the number.

Qu. Dear colleague, I am looking for the recorded IC50 of the following compound: CCn1c(C)cc(-c2csc(Nc3ccccc3C(F)(F)F)n2)c1C [Compound 1]
Ans. 101

----------
Target: EcIspE (Escherichia coli)
Construct: made in house
Experiment: EcIspE enzymatic assay (coupled to PK/LDH)
Type: biochemical
Conditions: analytical sample, DMSO at RT, 1 day of incubation; dissolved in methanol shortly before the assay
pIC50: −log10 of the molar value.
ASSAY_READOUT: pIC50

Qu. Suppose we examine the molecule CCn1c(C)cc(-c2csc(Nc3ccccc3C(F)(F)F)n2)c1C [Compound 1] ; what pIC50 value has been reported?
Ans. < 3.30

----------
Target: UniProtKB Q8I470
Experiment: PfIspE enzymatic assay (coupled to PK/LDH, NADH oxidation at 340 nm)
Assay type: biochemical
Details: first screening, from a single measurement; not reproducible later
ASSAY_READOUT: pIC50
The meaning of pIC50 here: minus log10 of the concentration in molar units.

Qu. # get_value(readout= pIC50, system= UniProtKB Q8I470) for CCn1c(C)cc(-c2csc(Nc3ccccc3OC)n2)c1C
Ans. 3.72

----------
Biological target: PfIspE (Plasmodium falciparum, UniProt Q8I470)
Sequence (Q8I470 entry or part of it): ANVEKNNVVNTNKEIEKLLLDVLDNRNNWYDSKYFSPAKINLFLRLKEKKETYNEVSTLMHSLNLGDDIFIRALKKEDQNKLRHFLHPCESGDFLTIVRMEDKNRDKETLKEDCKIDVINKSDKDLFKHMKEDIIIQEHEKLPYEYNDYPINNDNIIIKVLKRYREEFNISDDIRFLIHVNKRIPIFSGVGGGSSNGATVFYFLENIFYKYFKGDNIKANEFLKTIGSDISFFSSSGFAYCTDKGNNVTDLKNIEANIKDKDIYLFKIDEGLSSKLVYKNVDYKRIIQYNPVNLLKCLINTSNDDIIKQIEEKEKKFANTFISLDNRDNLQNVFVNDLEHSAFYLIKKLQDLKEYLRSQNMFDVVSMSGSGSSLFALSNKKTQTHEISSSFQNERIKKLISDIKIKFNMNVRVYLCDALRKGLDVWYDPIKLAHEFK
Experiment: PfIspE enzymatic assay (coupled to PK/LDH, NADH oxidation at 340 nm)
Format: biochemical
Conditions: 10 mM stock in DMSO at RT, 12 days of incubation
Experimental: Firstly, we performed a temperature‐dependent decomposition study of compound 1 at 10 mM concentration in DMSO at room temperature (RT), +4 °C and −20 °C (SI, Section 2.3). […] Besides visual inspection of the colour changes of the test sample (see Table 2), the decomposition was monitored by HRMS and NMR spectroscopy. […] For the final purified compounds, replicates were measured and standard deviation was calculated at least from two replicates. […]
ASSAY_READOUT: pIC50
When answering, recall that pIC50 equals minus log10 of the concentration in mol/L, and write that number alone.

Qu. Could you tell me which pIC50 is on file for CCn1c(C)cc(-c2csc(Nc3ccccc3C(F)(F)F)n2)c1C ?
Ans. 6.00

----------
Target: PfIspE (Plasmodium falciparum)
Assay: PfIspE enzymatic assay (coupled to PK/LDH, NADH oxidation at 340 nm)
Format: biochemical
Settings: freshly dissolved compound, in methanol shortly before the assay (Table 4 footnote b)
pIC50: −log10 of the molar value.
ASSAY_READOUT: pIC50

Qu. Could you share which pIC50 value was measured for CCn1c(C)cc(-c2csc(Nc3ccccc3C(F)(F)F)n2)c1C [Compound 1] ?
Ans. < 3.30

----------
Target: PK/LDH (pyruvate kinase and lactate dehydrogenase)
Test: PK/LDH auxiliary enzyme assay
Assay type: biochemical
Conditions: 10 mM DMSO stock stored at RT, measured after 3 months
ASSAY_READOUT: pIC50
Quick note: pIC50 values are minus log10 of concentrations in mol/L.

Qu. Given the molecule CCn1c(C)cc(-c2csc(Nc3ccccc3C(F)(F)F)n2)c1C , what is its reported pIC50?
Ans. 4.47

----------
Target: EcIspE (Escherichia coli)
Construct: made in house
Assay: EcIspE enzymatic assay (coupled to PK/LDH)
Type: biochemical
Conditions: 10 mM DMSO stock stored at +4 °C, measured after 3 months
ASSAY_READOUT: pIC50
Scale explanation: pIC50 corresponds to minus log10 of a concentration expressed in moles per litre.

Qu. I'd like to know its pIC50. The molecule in question is CCn1c(C)cc(-c2csc(Nc3ccccc3C(F)(F)F)n2)c1C
Ans. 4.15

----------
In this section we review reported pIC50 values for a set of compounds.
Target: EcIspE (Escherichia coli, UniProt P62615)
Construct: made in house
Sequence (P62615 whole entry): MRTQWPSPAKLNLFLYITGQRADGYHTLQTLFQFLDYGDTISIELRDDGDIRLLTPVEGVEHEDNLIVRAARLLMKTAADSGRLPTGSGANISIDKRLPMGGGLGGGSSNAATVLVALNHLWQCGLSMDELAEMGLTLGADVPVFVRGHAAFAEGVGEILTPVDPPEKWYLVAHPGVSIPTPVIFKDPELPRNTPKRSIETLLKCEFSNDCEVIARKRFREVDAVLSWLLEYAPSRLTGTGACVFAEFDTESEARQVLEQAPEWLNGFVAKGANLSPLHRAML
Assay: EcIspE enzymatic assay (coupled to PK/LDH)
Assay type: biochemical
Settings: fractions of second purification; dissolved in MeOH
pIC50: −log10 of the molar value.

# count of solved cases: 3
COMPOUND | EXPERIMENTAL_RESULT
CCn1c(C)cc(-c2csc(Nc3ccccc3C(F)(F)F)n2)c1C [Compound 1] | < 2.86
CCn1c(C)cc(-c2csc(Nc3ccccc3OC)n2)c1C [Compound 2] | < 2.82
C=CCn1c(C)cc(-c2csc(Nc3ccccc3C(C)C)n2)c1C [Compound 3] | < 2.85

Qu. Quick one: pIC50 of Cc1cc(-c2csc(Nc3ccccc3C(F)(F)F)n2)c(C)n1CC1CCCO1 (stereo not shown) [Compound 4] ?
Ans. 3.53

----------
System: Plasmodium falciparum drug-sensitive NF54
Experiment: Antimalarial assay, [3H]hypoxanthine incorporation
Assay type: cell-based
Settings: Plasmodium falciparum, NF54, 48 h, analytical sample, DMSO at RT, 2 days of incubation; dissolved in methanol shortly before the assay; read-out: PfNF54 IC50
ASSAY_READOUT: IC50
Please answer using the number first and the unit second.

Qu. Quick check: IC50 of CCn1c(C)cc(-c2csc(Nc3ccccc3C(F)(F)F)n2)c1C [Compound 1] ?
Ans. 3.5 µM

----------
Molecular target: PfIspE (Plasmodium falciparum)
Test: PfIspE enzymatic assay (coupled to PK/LDH, NADH oxidation at 340 nm)
Assay type: biochemical
Settings: 10 mM DMSO stock stored at RT, measured after 3 months
ASSAY_READOUT: IC50 (µM)
State just the number; it will be interpreted in µM.

Qu. Query (compound): CCn1c(C)cc(-c2csc(Nc3ccccc3C(F)(F)F)n2)c1C ; field requested: IC50
Ans. 12

----------
Molecular target: EcIspE (Escherichia coli, UniProt P62615)
Construct: made in house
Assay: EcIspE enzymatic assay (coupled to PK/LDH)
Type: biochemical
Conditions: old decomposed sample, control run at the same time as the temperature study
ASSAY_READOUT: pIC50
API: returns pIC50 as number; meaning -log10 of concentration in mol/L.

Qu. Return reported pIC50; argument: CCn1c(C)cc(-c2csc(Nc3ccccc3C(F)(F)F)n2)c1C
Ans. 4.49

----------
Biological target: PK/LDH (pyruvate kinase and lactate dehydrogenase)
Assay: PK/LDH auxiliary enzyme assay
Format: biochemical
Details: analytical sample, DMSO at RT, 4 days of incubation; dissolved in methanol shortly before the assay
ASSAY_READOUT: pIC50
The scale used: pIC50 is minus the common logarithm of the concentration in molar units.

Qu. So what does the record say about pIC50 for CCn1c(C)cc(-c2csc(Nc3ccccc3C(F)(F)F)n2)c1C [Compound 1] ?
Ans. 4.02

----------
System: Plasmodium falciparum drug-sensitive NF54
Experiment: Antimalarial assay, [3H]hypoxanthine incorporation
Type: cell-based
Conditions: Plasmodium falciparum, NF54, fresh batch; read-out: PfNF54 IC50
ASSAY_READOUT: pIC50
Scale: negative log10 of molar concentration, which is what pIC50 denotes.

Qu. What does the record list as pIC50 for CCn1c(C)cc(-c2csc(Nc3ccccc3C(F)(F)F)n2)c1C [Compound 1] ?
Ans. 5.14
